Test system: Streptococcus pyogenes
Test summary: Antimicrobial activity against Streptococcus pyogenes harboring ParE A53S mutant assessed as growth inhibition
Type: functional
Each item that follows carries a reported MIC.
# value in µg/mL; strip the unit string

Compound: CCNC(=O)Nc1nc2cc(-c3cnc([C@@H](O)[C@H](O)C(F)F)nc3)cc(-c3ccccn3)c2s1 (racemic)
Endpoint result: 1
--
Compound: CCCC(O)c1ncc(-c2cc(-c3ccccn3)c3sc(NC(=O)NCC)nc3c2)cn1 (racemic)
Endpoint result: 2
--
Compound: CCNC(=O)Nc1nc2cc(-c3cnc(C(O)(CC)CC)nc3)cc(-c3ccccn3)c2s1
Endpoint result: 8
--
Compound: CCNC(=O)Nc1nc2cc(-c3cnc(C(O)C4CC4)nc3)cc(-c3ccccn3)c2s1 (racemic)
Endpoint result: 1
--
Compound: CCNC(=O)Nc1nc2cc(-c3cnc(C(O)CN4CCOCC4)nc3)cc(-c3ccccn3)c2s1 (racemic)
Endpoint result: 2
--
Compound: CCNC(=O)Nc1nc2cc(-c3cnc(C4(O)CCOCC4O)nc3)cc(-c3ccccn3)c2s1 (racemic)
Endpoint result: 2

Which value of MIC has been reported for CCNC(=O)Nc1nc2cc(-c3cnc([C@@H](O)[C@H](O)C(F)(F)F)nc3)cc(-c3ccccn3)c2s1 (racemic) in the records?
1

Find the recorded MIC belonging to CCNC(=O)Nc1nc2cc(-c3cnc([C@@H](O)[C@@H](C)O)nc3)cc(-c3ccccn3)c2s1 (racemic) and report it.
1

###

Test summary: Fraction unbound in mouse plasma by ultracentrifugation
Type: ADME, cell-free
Rule: fraction unbound of 0.07 or more gives t; anything lower gives f.

Molecule: CCNC(=O)Nc1nc2cc(-c3cnc(C(C)(C)O)nc3)cc(-c3cc(CN4CC(C)(O)C4)ccn3)c2s1
Qualitative label: t
//
Molecule: CCNC(=O)Nc1nc2cc(-c3cnc(C(C)(C)O)nc3)cc(-c3cc(CN4CCC(F)(F)C4)ccn3)c2s1
Qualitative label: f
//
Molecule: CCNC(=O)Nc1nc2cc(-c3cnc(C(C)(C)O)nc3)cc(-c3cc(CN4CC[C@H](F)C4)ccn3)c2s1
Qualitative label: f
//
Molecule: CCNC(=O)Nc1nc2cc(-c3cnc(C(C)(C)O)nc3)cc(-c3cc(CN4CCCC4)ccn3)c2s1
Qualitative label: f
//
Molecule: CCNC(=O)Nc1nc2cc(-c3cnc(C(C)(C)O)nc3)cc(-c3ccccn3)c2s1
Qualitative label: f
//
Molecule: CCNC(=O)Nc1nc2cc(-c3cnc(C(C)(C)O)nc3)cc(-c3cc(CN4CC(O)C4)ccn3)c2s1
Qualitative label: t
//
Molecule: CCNC(=O)Nc1nc2cc(-c3cnc(C(C)(C)O)nc3)cc(-c3cc(CN4CCC(C)(O)C4)ccn3)c2s1 (stereo not drawn)
Qualitative label: t

In the following, a different molecule is considered.
Tell me whether fraction unbound is at least 0.07 here: `CCNC(=O)Nc1nc2cc(-c3cnc(C(C)(C)O)nc3)cc(-c3cc(CN4CC(OC)C4)ccn3)c2s1`
t

###

System: Haemophilus influenzae
Test summary: Antibacterial activity against Haemophilus influenzae 49247 assessed as growth inhibition
Assay type: functional
Observed property: MIC (µg/mL)
Numeric only. Scale: µg/mL

Some solved cases for reference:
Compound: CCNC(=O)Nc1nc2cc(-c3cnc(C4(O)CCCC4)nc3)cc(-c3ccccn3)c2s1
MIC, µg/mL: 1
--
Compound: CCNC(=O)Nc1nc2cc(-c3cnc(C(C)(C)O)nc3)cc(-c3cc(CN4CCC(C)(O)C4)ccn3)c2s1 (stereo not drawn)
MIC, µg/mL: 8
--
Compound: CCNC(=O)Nc1nc2cc(-c3cnc(C(O)CN4CCOCC4)nc3)cc(-c3ccccn3)c2s1 (racemic)
MIC, µg/mL: 2
--
Compound: CCNC(=O)Nc1nc2cc(-c3cnc(C4(O)CCOCC4O)nc3)cc(-c3ccccn3)c2s1 (racemic)
MIC, µg/mL: 2
--
Compound: CCNC(=O)Nc1nc2cc(-c3cnc(C(C)(C)O)nc3)cc(-c3cc(CN4CC[C@@H](OC)C4)ccn3)c2s1
MIC, µg/mL: 4

Name the reported MIC value associated with the compound `CCNC(=O)Nc1nc2cc(-c3cnc(C4(O)CCN(C)CC4)nc3)cc(-c3ccccn3)c2s1`
8

Bench note: what MIC did `CCNC(=O)Nc1nc2cc(-c3cnc(C(C)(C)O)nc3)cc(-c3cc(CN4CC(C)(O)C4)ccn3)c2s1` show?
4

Recorded MIC for `CCNC(=O)Nc1nc2cc(-c3cnc(C4(O)CCOCC4)nc3)cc(-c3ccccn3)c2s1` , please?
1
